The values you see were collected from ChEMBL document CHEMBL3098057.

Recorded efflux ratio, one value per entry.
Tested on: human MDR1
Test: Efflux ratio of permeability from basolateral to apical side over apical to basolateral side in pig LLC-PK1 cells expressing human MDR1
Type: ADME, cell-based, Sus scrofa
No unit in the answer, only the number.

Cc1cc(C(=O)N(C/C=C/c2ccc3c(c2)C[C@@]2(C3)C(=O)Nc3ncccc32)[C@H](C)c2cc(F)cc(F)c2)n(C)n1    2

In the following, a different compound is considered.
Reported efflux ratio, compound CC(C)(C)C(=O)N(C/C=C/c1cnc2c(c1)C[C@@]1(C2)C(=O)Nc2ncccc21)Cc1cc(F)cc(F)c1 : ____ 0.9

---

Tested on: human MDR1
Assay: Efflux ratio of permeability from basolateral to apical side over apical to basolateral side in pig LLC-PK1 cells expressing human MDR1
Format: ADME, cell-based, Sus scrofa
The threshold is 3. Values of efflux ratio beneath it are tagged y; values meeting or exceeding it are tagged n.

Problem: For the molecule C[C@H](c1cc(F)cc(F)c1)N(C/C=C/c1cnc2c(c1)C[C@@]1(C2)C(=O)Nc2ncccc21)C(=O)C(C)(C)C , is efflux ratio under 3? y

---

Test system: human MDR1
Assay: Efflux ratio of permeability from basolateral to apical side over apical to basolateral side in pig LLC-PK1 cells expressing human MDR1
Type: ADME, cell-based, Sus scrofa
Recorded efflux ratio, one value per entry.
No unit in the answer, only the number.

Reference set (8 entries):
C[C@H](c1cc(F)cc(F)c1)N(C/C=C/c1ccc2c(c1)C[C@@]1(C2)C(=O)Nc2ncccc21)C(=O)[C@@H]1CCCN1C    27
CC(C)(C)C(=O)N(CCCc1cnc2c(c1)C[C@@]1(C2)C(=O)Nc2ncccc21)[C@@H]1CCc2ccccc21    2.6
CC(C)(C)C(=O)N(CC#Cc1cnc2c(c1)C[C@@]1(C2)C(=O)Nc2ncccc21)[C@@H]1CCc2ccccc21    1.1
C[C@H](c1cc(F)cc(F)c1)N(C/C=C/c1cnc2c(c1)C[C@@]1(C2)C(=O)Nc2ncccc21)C(=O)C1(C(F)(F)F)CC1    2
Cc1ccc([C@@H](C)N(C/C=C/c2cnc3c(c2)C[C@@]2(C3)C(=O)Nc3ncccc32)C(=O)C(C)(C)C)cc1F    1.1
C[C@H](c1cc(F)cc(F)c1)N(CC(=O)Nc1ccc2c(c1)C[C@@]1(C2)C(=O)NC(=O)N1C)C(=O)C(C)(C)C    8.8
C[C@H](c1cc(F)cc(F)c1)N(C/C=C/c1cnc2c(c1)C[C@@]1(C2)C(=O)Nc2ncccc21)C(=O)c1nccn1C    19
CC(C)(C)C(=O)N(C/C=C/c1cnc2c(c1)C[C@@]1(C2)C(=O)Nc2ncccc21)[C@@H]1CCc2ccccc21    3.1

In the following, a different molecule is considered.
Reported efflux ratio, molecule C[C@H](c1ccccc1)N(CCCc1cnc2c(c1)C[C@@]1(C2)C(=O)Nc2ncccc21)C(=O)C(C)(C)C : ____ 3.2

---

System: human MDR1
Test: Efflux ratio of permeability from basolateral to apical side over apical to basolateral side in pig LLC-PK1 cells expressing human MDR1
Assay type: ADME, cell-based, Sus scrofa
Classify by measured efflux ratio: Criterion met if it is equal to or exceeds 2, Criterion not met if it is smaller.

Record excerpt, results attached:
C[C@H](c1ccccc1)N(CC#Cc1cnc2c(c1)C[C@@]1(C2)C(=O)Nc2ncccc21)C(=O)C(C)(C)C    Criterion not met
Cc1noc(C)c1C(=O)N(C/C=C/c1cnc2c(c1)C[C@@]1(C2)C(=O)Nc2ncccc21)[C@H](C)c1cc(F)cc(F)c1    Criterion met
C[C@H](c1ccc(Cl)cc1)N(C/C=C/c1cnc2c(c1)C[C@@]1(C2)C(=O)Nc2ncccc21)C(=O)C(C)(C)C    Criterion not met
C[C@H](c1cc(F)cc(F)c1)N(C/C=C/c1ccc2c(c1)C[C@@]1(C2)C(=O)Nc2ncccc21)C(=O)C1CCOCC1    Criterion not met
Cc1ccsc1C(=O)N(C/C=C/c1cnc2c(c1)C[C@@]1(C2)C(=O)Nc2ncccc21)[C@H](C)c1cc(F)cc(F)c1    Criterion not met

Is it the case that C[C@H](c1cc(F)cc(F)c1)N(CCCc1cnc2c(c1)C[C@@]1(C2)C(=O)Nc2ncccc21)C(=O)C(C)(C)C has efflux ratio reaching or exceeding 2? Criterion met
